Test system: Lipid peroxidation (rat liver microsomes)
experimental details: Lipid peroxidation screen (LPO), CCl4-induced, liver microsomes
Assay type: biochemical
measurement context: reference compound under screen conditions
pIC50: −log10 of the molar value.
observation type: pIC50

[[record]]
compound = "Cc1c(C)c2c(c(C)c1O)CCC(C)(CCCC(C)CCCC(C)CCCC(C)C)O2 (stereo not drawn) [alpha-tocopherol, reference compound]"
target_desc = "Lipid peroxidation (rat liver microsomes)"
measurement = 3.55


====

target desc: Cyclooxygenase-2 (prostaglandin H synthetase-2) from sheep placenta (Ovis aries, UniProt P79208)
Construct: cyclooxygenase-2 from sheep placenta; from tissue; host or cells: sheep placenta
Sequence (P79208 17-603): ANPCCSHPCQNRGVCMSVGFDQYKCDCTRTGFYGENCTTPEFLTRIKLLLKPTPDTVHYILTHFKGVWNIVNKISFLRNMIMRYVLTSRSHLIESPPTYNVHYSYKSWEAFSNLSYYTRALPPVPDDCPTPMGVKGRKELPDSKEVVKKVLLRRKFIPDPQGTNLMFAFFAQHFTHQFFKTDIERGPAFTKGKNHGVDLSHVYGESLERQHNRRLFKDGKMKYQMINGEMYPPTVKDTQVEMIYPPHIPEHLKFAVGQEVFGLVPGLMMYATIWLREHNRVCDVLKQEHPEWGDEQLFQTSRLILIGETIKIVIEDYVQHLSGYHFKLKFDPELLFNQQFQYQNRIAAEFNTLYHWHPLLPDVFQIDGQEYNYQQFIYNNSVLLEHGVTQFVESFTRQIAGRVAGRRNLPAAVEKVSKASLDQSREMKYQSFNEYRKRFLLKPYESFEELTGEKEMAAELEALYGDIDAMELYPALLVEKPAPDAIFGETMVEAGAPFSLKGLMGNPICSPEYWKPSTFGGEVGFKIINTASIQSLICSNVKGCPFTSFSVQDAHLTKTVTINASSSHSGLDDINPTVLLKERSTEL
experimental details: Cyclooxygenase-2 screen (COX-2)
Assay type: biochemical
measurement context: read-out: COX-2 percent inhibition
Given measured inhibition at 300 µM, output Yes if it is greater than or equal to 20% and No if not.

[[record]]
compound = "CC(C)Cc1ccc(C2(C)OC(=O)C(O)=C2O)cc1 (stereo not drawn)"
class_label = "No"

[[record]]
compound = "CCCS(=O)(=O)Cc1ccccc1C#CCCC1OC(=O)C(O)=C1O (stereo not drawn)"
class_label = "No"

[[record]]
compound = "CCC/C=C\\Cc1ccccc1C#CCCC1OC(=O)C(O)=C1O (stereo not drawn)"
class_label = "Yes"

[[record]]
compound = "CC(C)Cc1ccc([C@]2(C)OC(=O)C(O)=C2O)cc1"
class_label = "No"

[[record]]
compound = "CC(C)Cc1ccc([C@@]2(C)OC(=O)C(O)=C2O)cc1"
class_label = "No"

[[record]]
compound = "CCC/C=C\\Cc1ccccc1/C=C\\CCC1OC(=O)C(O)=C1O (stereo not drawn)"
class_label = "Yes"

[[record]]
compound = "O=C1OC(CCOc2ccc3oc(-c4ccccc4)cc(=O)c3c2)C(O)=C1O (stereo not drawn)"
class_label = "No"

[[record]]
compound = "CCCCCSCc1ccccc1C#CCCC1OC(=O)C(O)=C1O (stereo not drawn)"
class_label = "Yes"

[[record]]
compound = "O=C1OC(CCOc2cccc3ccccc23)C(O)=C1O (stereo not drawn)"
class_label = "No"

[[record]]
compound = "CC(C)CC1(c2ccc(-c3ccccc3)cc2)OC(=O)C(O)=C1O (stereo not drawn)"
class_label = "Yes"

[[record]]
compound = "O=C1OC(CCOc2ccc(-c3ccccc3)cc2)C(O)=C1O (stereo not drawn)"
class_label = "No"

[[record]]
compound = "O=C1OC(CCN2c3cccc4cccc(c34)S2(=O)=O)C(O)=C1O (stereo not drawn)"
class_label = "No"

[[record]]
compound = "O=C1OC(CCSc2ccc3ccccc3c2)C(O)=C1O (stereo not drawn)"
class_label = "No"

[[record]]
compound = "O=C1OC(CCOc2ccc3oc4ccccc4c3c2)C(O)=C1O (stereo not drawn)"
class_label = "Yes"

[[record]]
compound = "O=C1OC(CCN2C(=O)c3cccc4cccc(c34)C2=O)C(O)=C1O (stereo not drawn)"
class_label = "No"

[[record]]
compound = "O=C1OC(CCC#Cc2ccccc2CSc2ccccc2)C(O)=C1O (stereo not drawn)"
class_label = "No"

[[record]]
compound = "CCCCNS(=O)(=O)c1ccccc1C#CCCC1OC(=O)C(O)=C1O (stereo not drawn)"
class_label = "Yes"

[[record]]
compound = "O=C1OC(CCOc2ccccc2Cc2ccccc2)C(O)=C1O (stereo not drawn)"
class_label = "No"

[[record]]
compound = "C[C@]1(c2ccc(-c3ccccc3)cc2)OC(=O)C(O)=C1O"
class_label = "No"


Numbers sourced from patent US6262073A.
